- Test system: THRa:RXRa (NR concentration 90 nM, RXRa partner concentration 90 nM)
- test_summary: PBM binding z-score (relative to random genomic background probes); higher = stronger binding; sequences stand for … in GC…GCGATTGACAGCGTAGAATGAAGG
measurement_type: PBM binding z-score
Lab note: jot the number down without any unit.

Task item: Return reported PBM binding z-score; argument: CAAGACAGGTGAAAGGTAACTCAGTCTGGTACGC
Reply: 1.2

Task item: Quick one: PBM binding z-score for AATACTGGGTCATCGTAGGCCAGAGTACGCACAG ?
Reply: 3.85

Task item: Item under review: AGTCAAAGTTCACTATGTAACGTAAGATTCAGCT . Reported PBM binding z-score?
Reply: 1.36

Task item: So what's the measured PBM binding z-score for this one? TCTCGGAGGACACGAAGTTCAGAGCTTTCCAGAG
Reply: 1.72

Task item: Looking for the measured PBM binding z-score of TCTGCTAGGTCAGTTCGTCAGCTAACGAGCTGCC , can you help?
Reply: 1.2

Task item: State the recorded PBM binding z-score for this entry: GTTACAGGGTCAGCTAGAGGCCAGAGTATGGAAA
Reply: 3.11

Task item: Record request: PBM binding z-score value, item CCCACTGGGCCAAAGGTCATTGATTCCAATGCTC
Reply: 3.27

Task item: Please look up its PBM binding z-score: GCGACTGGGGCATCCGCAGGTTACCATAACTTAA
Reply: 1.21

Task item: Quick one: PBM binding z-score for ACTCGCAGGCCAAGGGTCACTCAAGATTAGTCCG ?
Reply: 2.95

Task item: Which PBM binding z-score value is on record for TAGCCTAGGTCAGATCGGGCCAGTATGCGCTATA ?
Reply: 4.04

Task item: Consider the sequence shown here: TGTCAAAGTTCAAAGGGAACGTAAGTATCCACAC What is its recorded PBM binding z-score?
Reply: 2.06

Task item: Fill in: PBM binding z-score of TGAATGAGGTTATAGATCAGGGAACGTGGCGTCG is ___
Reply: 2.05

Task item: Which measured PBM binding z-score value corresponds to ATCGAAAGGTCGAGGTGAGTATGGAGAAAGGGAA ?
Reply: 2.84

Task item: Item TCTCGGAGGACACGAAGGGTCAGAGCTCGACATC has what recorded PBM binding z-score?
Reply: 2.92

Task item: Tell me the measured PBM binding z-score of GGAACGAGCGCAAGTTGATAGCAGAGTTTGATGG , please.
Reply: -1.01

Task item: Need PBM binding z-score, item GGTACAGGGTCAGCTAGAGGCCAGAGTATGGAAA
Reply: 3.07

Task item: Name the reported PBM binding z-score value associated with the sequence ACACCAAGGTGATCGTGAGGTCGTTGATACTAAC
Reply: 3.42

Task item: Recorded PBM binding z-score of CGAGCTAGGTCATCCAGGACAGTGAATACATTGA , please.
Reply: 3.48

Task item: I'd like to know its PBM binding z-score. The sequence in question is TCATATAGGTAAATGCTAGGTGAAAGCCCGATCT
Reply: 1.29

Task item: Need PBM binding z-score, item GCTTGTAGATCAAGTTTAAGAAAGACTAAGCTAA
Reply: -0.0932

Task item: PBM binding z-score lookup needed for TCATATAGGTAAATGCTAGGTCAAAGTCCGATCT , thanks.
Reply: 2.96

Task item: So what's the measured PBM binding z-score for this one? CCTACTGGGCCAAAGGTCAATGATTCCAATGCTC
Reply: 3

Task item: # lookup: PBM binding z-score of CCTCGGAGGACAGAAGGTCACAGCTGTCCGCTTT
Reply: 3.36

Task item: Item under review: CCTATTGGTTGACCATAAGGGCAACCGAAGCTCG . Reported PBM binding z-score?
Reply: 1.62

Task item: For the sequence CCTCGGAGGACAGAAGGTCAGACCTGTCCGCTTT , what PBM binding z-score is on record?
Reply: 2.39

Task item: What does the data say about its PBM binding z-score? Entry: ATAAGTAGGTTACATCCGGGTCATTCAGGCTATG
Reply: 3.72
